Numbers sourced from patent US7893074B2.

target: IGF-IR (Homo sapiens, UniProt P08069); test: Cellular Capture ELISA of IGF-I induced autophosphorylation of the IGF-IR; details: read-out: IGF-1R IC50
Sequence (P08069 31-1367): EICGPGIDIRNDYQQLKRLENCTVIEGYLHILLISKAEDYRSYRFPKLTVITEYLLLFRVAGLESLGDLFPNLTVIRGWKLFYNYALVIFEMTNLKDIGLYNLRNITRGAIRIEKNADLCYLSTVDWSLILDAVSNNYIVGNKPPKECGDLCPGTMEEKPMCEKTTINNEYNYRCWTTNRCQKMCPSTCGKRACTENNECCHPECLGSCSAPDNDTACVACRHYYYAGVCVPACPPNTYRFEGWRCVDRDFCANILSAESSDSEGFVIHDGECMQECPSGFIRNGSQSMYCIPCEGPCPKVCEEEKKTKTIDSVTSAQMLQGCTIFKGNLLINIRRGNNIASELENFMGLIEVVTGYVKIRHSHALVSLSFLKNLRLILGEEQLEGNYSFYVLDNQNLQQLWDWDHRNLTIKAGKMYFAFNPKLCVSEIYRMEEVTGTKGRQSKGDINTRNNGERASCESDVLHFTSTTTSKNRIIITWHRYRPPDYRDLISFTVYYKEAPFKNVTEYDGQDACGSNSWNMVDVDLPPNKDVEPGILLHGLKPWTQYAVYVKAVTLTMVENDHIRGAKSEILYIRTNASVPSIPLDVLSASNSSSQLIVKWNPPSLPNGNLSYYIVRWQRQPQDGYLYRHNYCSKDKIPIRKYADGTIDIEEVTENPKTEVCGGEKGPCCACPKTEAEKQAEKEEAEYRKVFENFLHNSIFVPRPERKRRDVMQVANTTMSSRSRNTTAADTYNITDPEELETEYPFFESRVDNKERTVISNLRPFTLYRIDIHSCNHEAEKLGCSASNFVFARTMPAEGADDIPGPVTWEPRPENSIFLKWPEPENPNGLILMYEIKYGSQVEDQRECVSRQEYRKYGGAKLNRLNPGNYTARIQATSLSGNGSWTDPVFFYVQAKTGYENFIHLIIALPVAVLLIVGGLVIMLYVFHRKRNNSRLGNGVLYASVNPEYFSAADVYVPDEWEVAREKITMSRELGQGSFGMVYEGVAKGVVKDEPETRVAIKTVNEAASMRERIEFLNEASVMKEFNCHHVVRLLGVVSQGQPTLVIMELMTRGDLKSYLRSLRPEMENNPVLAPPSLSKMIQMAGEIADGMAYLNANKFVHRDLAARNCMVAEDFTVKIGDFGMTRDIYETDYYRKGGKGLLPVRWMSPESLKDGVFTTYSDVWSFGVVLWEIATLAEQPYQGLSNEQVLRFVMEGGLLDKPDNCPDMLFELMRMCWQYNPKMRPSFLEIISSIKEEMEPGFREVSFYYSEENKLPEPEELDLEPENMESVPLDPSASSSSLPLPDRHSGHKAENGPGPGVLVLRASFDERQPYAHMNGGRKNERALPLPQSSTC
pIC50: −log10 of the molar value.
In this section we review reported pIC50 values for a set of compounds.

>  <Compound>
CNS(=O)(=O)c1ccccc1Nc1nc(Nc2cc(-c3ccncc3)ccc2OC)ncc1Br

>  <Qualifier symbol>
=

>  <pIC50>
6.82

$$$$
>  <Compound>
CCCS(=O)(=O)c1ccccc1Nc1nc(Nc2ccc(N3CCOCC3)cc2OC)ncc1Cl

>  <Qualifier symbol>
=

>  <pIC50>
6.54

$$$$
>  <Compound>
CNS(=O)(=O)c1ccccc1Nc1nc(Nc2cc(OC)c(OC)cc2C)ncc1Cl

>  <Qualifier symbol>
=

>  <pIC50>
6.82

$$$$
>  <Compound>
CNC(=O)c1ccccc1Nc1nc(Nc2ccc(N3CCC(N(C)C)C3)cc2OC)ncc1Cl (stereo not shown)

>  <Qualifier symbol>
=

>  <pIC50>
6.11

$$$$
>  <Compound>
CNS(=O)(=O)c1ccccc1Nc1nc(Nc2ccc(OC3CCN(C(C)C)C3)cc2OC)ncc1Cl (stereo not shown)

>  <Qualifier symbol>
=

>  <pIC50>
6.38

$$$$
>  <Compound>
CNS(=O)(=O)c1ccccc1Nc1nc(Nc2cc(OCCCN3CCOCC3)ccc2OC)ncc1Br

>  <Qualifier symbol>
=

>  <pIC50>
5.79

$$$$
>  <Compound>
CNS(=O)(=O)c1ccccc1Nc1nc(Nc2ccc(N3CCOCC3)cc2OC)ncc1Br

>  <Qualifier symbol>
=

>  <pIC50>
7.00

$$$$
>  <Compound>
CCC(CC)NS(=O)(=O)c1ccccc1Nc1nc(Nc2ccc(N3CCC(NC)C3)cc2OC)ncc1Cl (stereo not shown)

>  <Qualifier symbol>
=

>  <pIC50>
6.09

$$$$
>  <Compound>
CNS(=O)(=O)c1ccccc1Nc1nc(Nc2cc(-c3ccc(OC)cc3)ccc2C)ncc1Br

>  <Qualifier symbol>
=

>  <pIC50>
6.09

$$$$
>  <Compound>
CNS(=O)(=O)c1ccccc1Nc1nc(Nc2cc(-c3ccncc3)ccc2C)ncc1Br

>  <Qualifier symbol>
>

>  <pIC50>
7.10

$$$$
>  <Compound>
COc1cc(N2CCOCC2)ccc1Nc1ncc(Cl)c(Nc2ccccc2S(=O)(=O)NCC(C)C)n1

>  <Qualifier symbol>
=

>  <pIC50>
6.59

$$$$
>  <Compound>
CCCS(=O)(=O)c1ccccc1Nc1nc(Nc2ccc(N3CCN(C(C)C)CC3)cc2OC)ncc1Cl

>  <Qualifier symbol>
=

>  <pIC50>
6.74

$$$$
>  <Compound>
COc1cc(OCC2CCCN(C)C2)ccc1Nc1ncc(Cl)c(Nc2ccccc2S(=O)(=O)NC(C)C)n1 (stereo not shown)

>  <Qualifier symbol>
=

>  <pIC50>
6.19

$$$$
>  <Compound>
CCCS(=O)(=O)c1ccccc1Nc1nc(Nc2ccc(N3CCC(N4CCCCC4)CC3)cc2OC)ncc1Cl

>  <Qualifier symbol>
=

>  <pIC50>
6.64

$$$$
>  <Compound>
CCCS(=O)(=O)c1ccccc1Nc1nc(Nc2cc(N3CCN(C(C)=O)CC3)ccc2OC)ncc1Cl

>  <Qualifier symbol>
=

>  <pIC50>
7.15

$$$$
>  <Compound>
CNC(=O)c1ccccc1Nc1nc(Nc2cc(F)ccc2OC)ncc1Br

>  <Qualifier symbol>
<

>  <pIC50>
5.00

$$$$

---

target: Focal Adhesion Kinase (FAK) (Homo sapiens); assay: FAK assay system (Focal Adhesion Kinase inhibition); assay type: biochemical; settings: read-out: FAK IC50
pIC50: −log10 of the molar value.
Label satisfied when pIC50 >= 8; otherwise not satisfied.

>  <Compound>
CCC(C)NS(=O)(=O)c1ccccc1Nc1nc(Nc2ccc(OCCN3CCOCC3)cc2OC)ncc1Cl (centres unmarked) [Example 21-4]

>  <Group label>
satisfied

$$$$
>  <Compound>
CCCS(=O)(=O)c1ccccc1Nc1nc(Nc2ccc(OC3CCN(C)CC3)cc2OC)ncc1Cl [Example 26-26]

>  <Group label>
satisfied

$$$$
>  <Compound>
CCC(C)NS(=O)(=O)c1ccccc1Nc1nc(Nc2ccc(OC3CCN(C)CC3)cc2OC)ncc1Cl (centres unmarked) [Example 21-3]

>  <Group label>
satisfied

$$$$
>  <Compound>
CNC(=O)c1cc(N2CCOCC2)ccc1Nc1nc(Nc2ccc(F)cc2OC)ncc1Cl [Example 16-1]

>  <Group label>
not satisfied

$$$$
>  <Compound>
CNS(=O)(=O)c1ccccc1Nc1nc(Nc2cc(N3CCCCC3)ccc2C)ncc1Br [Example 3-26]

>  <Group label>
not satisfied

$$$$

---

biological target: Focal Adhesion Kinase (FAK) (Homo sapiens, UniProt Q05397); experiment: FAK assay system (Focal Adhesion Kinase inhibition); type: biochemical; conditions: read-out: FAK IC50
Sequence (Q05397 384-706): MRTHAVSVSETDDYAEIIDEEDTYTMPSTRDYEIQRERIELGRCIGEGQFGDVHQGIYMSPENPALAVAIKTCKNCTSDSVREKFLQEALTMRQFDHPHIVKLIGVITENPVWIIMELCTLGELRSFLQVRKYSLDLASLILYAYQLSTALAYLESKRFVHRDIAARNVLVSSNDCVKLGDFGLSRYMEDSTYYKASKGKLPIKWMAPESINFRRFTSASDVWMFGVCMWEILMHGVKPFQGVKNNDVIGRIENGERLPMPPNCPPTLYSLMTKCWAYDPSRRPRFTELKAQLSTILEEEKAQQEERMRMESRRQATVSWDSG
pIC50: −log10 of the molar value.

>  <Compound>
COc1cc(N2CCOCC2)ccc1Nc1ncc(Cl)c(Nc2ccccc2C(=O)N2CCCC2)n1 [Example 14-6]

>  <pIC50>
7.20

$$$$
>  <Compound>
CNS(=O)(=O)c1ccccc1Nc1nc(Nc2ccc(N3CCNCC3)cc2OC)ncc1Br [Example 3-47]

>  <pIC50>
9.00

$$$$
>  <Compound>
CCC(CC)NS(=O)(=O)c1ccccc1Nc1nc(Nc2ccc(N3CCOCC3)cc2OC)ncc1Cl [Example 23-6]

>  <pIC50>
7.80

$$$$
>  <Compound>
COc1cc(N2CCN(C(C)=O)CC2)ccc1Nc1ncc(Cl)c(Nc2ccccc2S(=O)(=O)C2CC2)n1 [Example 30-2]

>  <pIC50>
7.92

$$$$
>  <Compound>
COc1cc(N2CCOCC2)ccc1Nc1ncc(Cl)c(Nc2ccccc2C(=O)NC(C)C)n1 [Example 14-2]

>  <pIC50>
6.72

$$$$
>  <Compound>
CNC(=O)c1ccccc1Nc1nc(Nc2ccc(N3CCN(C)CC3)cc2OC)ncc1Cl [Example 7-3]

>  <pIC50>
8.54

$$$$
>  <Compound>
COc1cc(N2CCN(C(C)=O)CC2)ccc1Nc1ncc(Cl)c(Nc2ccccc2S(=O)(=O)C2CCCC2)n1 [Example 33-1]

>  <pIC50>
8.60

$$$$
>  <Compound>
COc1cc(NC(C)(C)CO)ccc1Nc1ncc(Cl)c(Nc2ccccc2S(=O)(=O)NC(C)C)n1 [Example 19-23]

>  <pIC50>
8.19

$$$$

---

In this section we review reported IC50 values for a set of molecules.
molecular target: Focal Adhesion Kinase (FAK) (Homo sapiens, UniProt Q05397); assay: FAK assay system (Focal Adhesion Kinase inhibition); type: biochemical; details: read-out: FAK IC50

>  <Smiles>
CNC(=O)c1cc(F)ccc1Nc1nc(Nc2ccc(N3CCC(N4CCCCC4)CC3)cc2OC)ncc1Cl

>  <IC50, nM>
4.1

$$$$
>  <Smiles>
CCCS(=O)(=O)c1ccccc1Nc1nc(Nc2ccc(N3CCN(C(C)=O)CC3)cc2OC)ncc1Cl

>  <IC50, nM>
1.9

$$$$
>  <Smiles>
CNS(=O)(=O)c1ccccc1Nc1nc(Nc2cc(Cl)ccc2OC)ncc1Br

>  <IC50, nM>
29

$$$$
>  <Smiles>
CNS(=O)(=O)c1ccccc1Nc1nc(Nc2cc(N3CCC(N4CCCCC4)CC3)ccc2OC)ncc1Br

>  <IC50, nM>
4

$$$$

---

In this section we review reported pIC50 values for a set of molecules.
biological target: FAK (Mus musculus, UniProt P34152); test: Phos IC50 (phosphorylation)
Sequence (P34152 2-1052): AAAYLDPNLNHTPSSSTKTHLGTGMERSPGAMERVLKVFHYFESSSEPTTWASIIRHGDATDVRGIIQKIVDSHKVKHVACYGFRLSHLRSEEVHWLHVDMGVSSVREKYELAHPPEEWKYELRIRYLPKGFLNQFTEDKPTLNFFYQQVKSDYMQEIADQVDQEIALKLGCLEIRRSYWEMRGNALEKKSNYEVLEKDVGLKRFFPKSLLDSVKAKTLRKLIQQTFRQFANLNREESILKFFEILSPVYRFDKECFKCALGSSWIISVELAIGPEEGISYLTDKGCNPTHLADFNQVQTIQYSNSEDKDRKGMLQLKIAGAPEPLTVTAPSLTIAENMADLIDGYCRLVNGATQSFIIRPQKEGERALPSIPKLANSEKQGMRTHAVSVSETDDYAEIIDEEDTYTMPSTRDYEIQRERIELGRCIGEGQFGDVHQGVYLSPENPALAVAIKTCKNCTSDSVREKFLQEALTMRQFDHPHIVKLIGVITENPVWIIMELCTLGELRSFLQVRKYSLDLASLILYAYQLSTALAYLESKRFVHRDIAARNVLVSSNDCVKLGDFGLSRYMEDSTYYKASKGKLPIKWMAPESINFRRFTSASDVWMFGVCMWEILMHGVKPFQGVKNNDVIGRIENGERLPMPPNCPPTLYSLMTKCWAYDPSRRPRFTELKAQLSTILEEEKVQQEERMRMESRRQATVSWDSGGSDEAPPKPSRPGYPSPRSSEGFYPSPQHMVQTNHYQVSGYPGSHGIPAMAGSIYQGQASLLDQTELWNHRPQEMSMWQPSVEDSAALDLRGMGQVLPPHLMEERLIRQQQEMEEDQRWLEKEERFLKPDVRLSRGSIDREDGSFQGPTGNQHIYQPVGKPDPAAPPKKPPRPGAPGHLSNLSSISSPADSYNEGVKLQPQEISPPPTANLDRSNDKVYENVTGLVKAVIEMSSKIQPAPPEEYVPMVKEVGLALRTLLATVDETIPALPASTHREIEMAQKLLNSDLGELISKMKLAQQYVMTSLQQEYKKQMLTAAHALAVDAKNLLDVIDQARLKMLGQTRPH
pIC50: −log10 of the molar value.

>  <Smiles>
CC(C)NS(=O)(=O)c1ccccc1Nc1nc(Nc2ccc(N3CCOCC3)cc2F)ncc1Cl

>  <Tested on>
FAK (Mus musculus, UniProt P34152)

>  <pIC50>
6.00

$$$$
>  <Smiles>
CCNC(=O)c1ccccc1Nc1nc(Nc2ccc(N3CCN(C)CC3)cc2OC)ncc1Cl

>  <Tested on>
FAK (Mus musculus, UniProt P34152)

>  <pIC50>
6.30

$$$$
>  <Smiles>
COc1cc(N2CCN3CCOC[C@H]3C2)ccc1Nc1ncc(Cl)c(Nc2ccccc2S(=O)(=O)NC(C)C)n1

>  <Tested on>
FAK (Mus musculus, UniProt P34152)

>  <pIC50>
6.40

$$$$
>  <Smiles>
CCCS(=O)(=O)c1ccccc1Nc1nc(Nc2ccc(N3CCC[C@H](C(N)=O)C3)cc2OC)ncc1Cl

>  <Tested on>
FAK (Mus musculus, UniProt P34152)

>  <pIC50>
6.70

$$$$

---

biological target: UniProt Q05397; test: FAK assay system (Focal Adhesion Kinase inhibition); assay type: biochemical; details: read-out: FAK IC50
In this section we review reported IC50 values for a set of compounds.

>  <Compound>
CNC(=O)c1ccccc1Nc1nc(Nc2cccc3[nH]ccc23)ncc1Cl

>  <Tested on>
UniProt Q05397

>  <Unit>
nM

>  <IC50>
21

$$$$
>  <Compound>
CCCS(=O)(=O)c1ccccc1Nc1nc(Nc2ccc(N3CCC[C@H](C(N)=O)C3)cc2OC)ncc1Cl

>  <Tested on>
UniProt Q05397

>  <Unit>
nM

>  <IC50>
3.7

$$$$
>  <Compound>
CNS(=O)(=O)c1ccccc1Nc1nc(Nc2ccc(N3CCC(NC(C)=O)C3)cc2OC)ncc1Cl (stereo not shown)

>  <Tested on>
UniProt Q05397

>  <Unit>
nM

>  <IC50>
6.8

$$$$
>  <Compound>
CCS(=O)(=O)c1ccccc1Nc1nc(Nc2ccc(CN3CCN(C)CC3)cc2OC)ncc1Cl

>  <Tested on>
UniProt Q05397

>  <Unit>
nM

>  <IC50>
5.5

$$$$
